B1: MIA2 (parent)
chain: SVIEPVQESSFRSRKIAVEDENDL

variants of: B1; assay: protein stability index of a GFP-peptide fusion (GPS, HEK-293T) (PSI 1-6); higher = more stable; details: c terminus: a fixed tail appended;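 further: lentivirally expressed fusions sorted by FACS into six bins by GFP to DsRed ratio, PSI derived from sequencing read proportions per bin multiplied by bin number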
Test Readout: protein stability index
Answer using only a numeral; do not append any unit.

Documented protein stability index of SVIEPVQESSFRSRKIAVEDENAL [D23A] : 5.26

// protein stability index value for SVIEPVQESSFRSRKIAKEDENDL [V18K] : 5.63

For record SVIEPVQESSFRSRKIFVEDENDL [A17F] the listed protein stability index is 5.05

Quick note, protein stability index for SVIEPVQESSFRSRKIAYEDENDL [V18Y] landed at 5.21

The variant listed as SVIMPVQESSFRSRKIAVEDENDL [E4M] shows protein stability index equal to 4.9

Item: SSIEPVQESSFRSRKIAVEDENDL [V2S] | protein stability index: 5.32

The variant identified as SVIEPVQESSFRSRKIHVEDENDL [A17H] registered its protein stability index at 5.53

Data point: SVIEPVQESSFRSRKIAHEDENDL [V18H] ; protein stability index = 5.36

Memo: SVIEPVQESSFRSRKIAVEDENDG [L24G] , reported protein stability index: 5.75

protein stability index for SVIEPVQESSFRSRKIAVEDESDL [N22S] is 3.82

Reported protein stability index of SVIEPVQESSFRSRKIAVEQENDL [D20Q] : 5.25

protein stability index in this record for SVIEPVQESSFRSRKMAVEDENDL [I16M] : 5.42

// recorded protein stability index for QVIEPVQESSFRSRKIAVEDENDL [S1Q] : 5.39

# protein stability index of SVIENVQESSFRSRKIAVEDENDL [P5N] = 5.01

Entry SVAEPVQESSFRSRKIAVEDENDL [I3A] , protein stability index reported as 5.71

Measured protein stability index, SVEEPVQESSFRSRKIAVEDENDL [I3E] : 5.61

Form field protein stability index, entry SVIEPVQESSFRSRKIAVEDECDL [N22C] : 5

The variant listed as SVIEPVQESSFRSRKIRVEDENDL [A17R] shows protein stability index equal to 4.77

The recorded protein stability index for TVIEPVQESSFRSRKIAVEDENDL [S1T] is 5.45

SVIEPVWESSFRSRKIAVEDENDL [Q7W] has a reported protein stability index of 5.13

Sample SVIEPEQESSFRSRKIAVEDENDL [V6E] ; protein stability index observed: 5.76

The variant listed as SVIEPVQESSFRSRKIAVEDENKL [D23K] has a reported protein stability index of 4.95
